system: L1210 leukemia ip in BDF1 mice, survival T/C; experiment: NCI In Vivo Anticancer Drug Screen. Data for tumor model L1210 Leukemia (intraperitoneal) in B6D2F1 (BDF1) mice; settings: endpoint: mean survival time; dose: 200.0 mg/kg/injection; schedule: Q04DX003 (ip); vehicle: saline; higher = longer survival
Inconclusive results and toxic doses are left out.
Reported metric: T/C

{"Compound": "COC(=O)C(COS(=O)(=O)c1ccccc1)NC(=O)OCc1ccccc1 (centres undefined)", "Result": "97 % of control"}
{"Compound": "Nc1nc2ccccc2nc1N", "Result": "108 % of control"}
{"Compound": "NC(=O)CC(N)c1nn[nH]n1 (centres undefined)", "Result": "100 % of control"}
{"Compound": "C=CC1COC=C2CN3CCc4cc(OC)c(O)cc4C3CC21 (centres undefined)", "Result": "101 % of control"}
{"Compound": "CC(C)(N)COS(=O)(=O)O", "Result": "114 % of control"}
{"Compound": "Nc1c(S(=O)(=O)O)cc(Br)c2c1C(=O)c1ccccc1C2=O", "Result": "93 % of control"}
{"Compound": "Cn1nnc(N)n1", "Result": "96 % of control"}
{"Compound": "CC(=O)OCCN1CCC(n2ccc(=O)[nH]c2=O)C1=O (centres undefined)", "Result": "104 % of control"}
{"Compound": "O=[N+]([O-])c1ccc(/C=N/N2CCOCC2)s1", "Result": "97 % of control"}
{"Compound": "CC12CCC3(CC1CC/C(=C\\c1ccco1)C2=O)OCCO3 (centres undefined)", "Result": "95 % of control"}
{"Compound": "CCCCCCC(CCCCCC)(CCCCCC)B1OCCO1", "Result": "102 % of control"}
{"Compound": "CCCSCSCCC", "Result": "104 % of control"}
{"Compound": "Nc1ccc(CCO)cc1", "Result": "96 % of control"}
{"Compound": "CC(O)(CC(c1ccccc1)N1CCc2ccccc2C1)c1ccccc1 (centres undefined)", "Result": "102 % of control"}
{"Compound": "CC1(C)COC(C2CC(=O)c3ccccc3C2)=N1 (centres undefined)", "Result": "99 % of control"}
{"Compound": "O=[N+]([O-])c1cccc(S(=O)(=O)O)c1.[Fe]", "Result": "89 % of control"}
{"Compound": "O=C(O)CC(Br)C(=O)O (centres undefined)", "Result": "102 % of control"}
{"Compound": "CC1NC1(c1ccccc1)[n+]1ccccc1 (centres undefined)", "Result": "105 % of control"}
{"Compound": "CCOC(CN=Cc1ccccn1)OCC", "Result": "91 % of control"}
{"Compound": "COCc1ccc(COC)cc1", "Result": "108 % of control"}
{"Compound": "Cn1c(=S)[nH]c2cc(Cl)c(Cl)cc21", "Result": "105 % of control"}
{"Compound": "O=C(O)C1CC2C3CC(C(=O)O)C(C3)C2C1 (centres undefined)", "Result": "100 % of control"}
{"Compound": "O=[N+]([O-])c1cc(-c2ccccc2)cc([N+](=O)[O-])c1Cl", "Result": "102 % of control"}
{"Compound": "O=C1CCC2(C/C1=N\\Nc1ccccc1)OCCO2", "Result": "96 % of control"}
{"Compound": "COc1cc(OC)c(C(=O)c2ccccc2[N+](=O)[O-])c(OC)c1", "Result": "99 % of control"}
{"Compound": "BrC1=C(Br)CCCC1", "Result": "91 % of control"}
{"Compound": "Fc1nc(F)nc(F)n1", "Result": "100 % of control"}
{"Compound": "CCC(C)(CC)OC(N)=O", "Result": "96 % of control"}
{"Compound": "COc1ccccc1NC(=O)c1cc2ccccc2cc1O", "Result": "100 % of control"}
